- ASSAY_REMARKS: Stability of compound at pH 2 assessed as drug hydrolysis measured after 72 hrs by HPLC analysis
- Type: physicochemical
- ASSAY_SETUP: buffer, read-out: Drug degradation
Would you kindly list degraded at 72 h for each of these molecules?

Exercise: Fill blank: measured degraded at 72 h of the molecule COc1cccc2c1C(=O)c1c(O)c3c(c(O)c1C2=O)C[C@@](O)(/C(CO)=N\OCC(=O)NC[C@H]1O[C@H](OC)[C@H](O)[C@@H](O)[C@@H]1O)C[C@@H]3O[C@H]1C[C@H](N)[C@H](O)[C@H](C)O1 is ____.
Key: 46%

Exercise: Query: degraded at 72 h; subject: COc1cccc2c1C(=O)c1c(O)c3c(c(O)c1C2=O)C[C@@](O)(/C(CO)=N\OCC(=O)NCc1cn(C[C@H]2O[C@H](OC)[C@H](O)[C@@H](O)[C@@H]2O)nn1)C[C@@H]3O[C@H]1C[C@H](N)[C@H](O)[C@H](C)O1
Key: 49%
